molecular target: Human plasmin (Homo sapiens); construct: Human plasmin is purchased from Boehringer Mannheim, Indianapolis, Ind; purchased Boehringer Mannheim, Indianapolis, Ind; assay: Serine protease inhibition, plasmin (chromogenic substrate), Kass; type: biochemical; details: substrate H-D-Val-Leu-Lys-p-nitroanilide
Sequence (P00747 581-810 limits assumed): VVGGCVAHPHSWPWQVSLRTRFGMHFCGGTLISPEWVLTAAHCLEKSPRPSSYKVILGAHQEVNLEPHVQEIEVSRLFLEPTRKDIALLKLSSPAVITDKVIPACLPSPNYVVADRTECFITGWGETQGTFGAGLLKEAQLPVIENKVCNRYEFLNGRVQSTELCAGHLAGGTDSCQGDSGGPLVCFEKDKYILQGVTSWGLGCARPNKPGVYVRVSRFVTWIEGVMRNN
Sequence (P00747 97-580 partner limits assumed): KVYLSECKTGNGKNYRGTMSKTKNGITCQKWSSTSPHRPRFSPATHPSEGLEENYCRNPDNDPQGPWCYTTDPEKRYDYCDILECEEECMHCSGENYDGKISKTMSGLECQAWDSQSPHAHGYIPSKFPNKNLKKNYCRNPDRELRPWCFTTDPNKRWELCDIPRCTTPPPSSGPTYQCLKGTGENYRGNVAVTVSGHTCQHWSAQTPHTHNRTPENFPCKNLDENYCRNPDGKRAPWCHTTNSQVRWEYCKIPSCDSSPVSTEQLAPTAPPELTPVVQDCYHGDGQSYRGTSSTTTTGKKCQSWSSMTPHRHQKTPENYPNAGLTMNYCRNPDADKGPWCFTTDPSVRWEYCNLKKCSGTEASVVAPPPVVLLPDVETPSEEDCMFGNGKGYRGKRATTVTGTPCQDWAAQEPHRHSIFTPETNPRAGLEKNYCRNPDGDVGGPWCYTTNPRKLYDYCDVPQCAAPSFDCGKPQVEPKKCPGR
quantity.name: Enzyme Kass, Plasmin
The number alone won't do; follow it with the unit.

IN: # get_value(readout= Enzyme Kass, Plasmin, system= Human plasmin (Homo sapiens)) for CCOC(=O)N[C@H](Cc1ccccc1)C(=O)N1CCC[C@H]1C(=O)N[C@H](C=O)CCCNC(=N)N.Cl [Example 33, EtOCO-D-Phe-Pro-Arg-H.HCl]
OUT: 16 L/mol × 10^6

IN: Cl.N=C(N)NCCC[C@@H](C=O)NC(=O)[C@@H]1CCCN1C(=O)[C@@H](Cc1ccccc1)NC(=O)C(F)(F)F [Example 25, CF3 CO-D-Phe-Pro-Arg-H.HCl] , same question.
OUT: 0.31 L/mol × 10^6

IN: Cl.Cn1c(C(=O)NC(CC2CCCCC2)C(=O)N2CCCC2C(=O)NC(C=O)CCCN=C(N)N)cc2ccccc21 [Example 5, NMI-D-Cha-Pro-Arg-H.HCl] , same question.
OUT: 25 L/mol × 10^6

IN: CCOC(=O)N[C@H](CC1CCCCC1)C(=O)N1CCC[C@H]1C(=O)N[C@H](C=O)CCCN=C(N)N.Cl [Example 34, EtOCO-D-Cha-Pro-Arg-H.HCl] , same question.
OUT: 26 L/mol × 10^6

IN: Cl.N=C(N)NCCC[C@@H](C=O)NC(=O)[C@@H]1CCCN1C(=O)[C@@H](Cc1ccccc1)NCC1CCCCC1 [Example 30, cyclohexyl-CH2 -D-phe-pro-Arg-H.HCl] , same question.
OUT: 0.49 L/mol × 10^6

IN: Cl.NC(N)=NCCCC(C=O)NC(=O)C1CCCN1C(=O)C(Cc1ccccc1)NC(=O)c1ccc2ccccc2n1 (stereo not shown) [Example 2] , same question.
OUT: 0.55 L/mol × 10^6

IN: CCCCS(=O)(=O)N[C@H](Cc1ccccc1)C(=O)N1CCC[C@H]1C(=O)N[C@H](C=O)CCCNC(=N)N.Cl [Example 10, n-Bu-SO2 -D-Phe-Pro-Arg-H.HCl] , same question.
OUT: 27 L/mol × 10^6

IN: Cl.N=C(N)NCCC[C@@H](C=O)NC(=O)[C@@H]1CCCN1C(=O)[C@@H](Cc1ccccc1)NC(=O)Cc1ccccc1 [Example 26, PhCH2 CO-D-Phe-Pro-Arg-H.HCl] , same question.
OUT: 0.54 L/mol × 10^6

IN: Cl.N=C(N)NCCC[C@@H](C=O)NC(=O)[C@@H]1CCCN1C(=O)[C@@H](Cc1ccccc1)NS(=O)(=O)c1ccc(C(=O)O)cc1 [Example 18, 4-(HO2 C)-C6 H4 SO2 -D-Phe-Pro-Arg-H.HCl] , same question.
OUT: 7.0 L/mol × 10^6

IN: CCNC(=O)N[C@H](Cc1ccccc1)C(=O)N1CCC[C@H]1C(=O)N[C@H](C=O)CCCN=C(N)N.Cl [Example 32, EtNHCO-D-Phe-Pro-Arg-H.HCl] , same question.
OUT: 2.0 L/mol × 10^6

IN: CCS(=O)(=O)N[C@H](Cc1ccccc1)C(=O)N1CCC[C@H]1C(=O)N[C@H](C=O)CCCNC(=N)N.Cl [Example 8, EtSO2 -D-Phe-Pro-Arg-H-HCl] , same question.
OUT: 31 L/mol × 10^6

IN: CS(=O)(=O)N[C@H](Cc1ccccc1)C(=O)N1CCC[C@H]1C(=O)N[C@H](C=O)CCCNC(=N)N.Cl [Example 7, MeSO2 -D-Phe-Pro-Arg-H.HCl] , same question.
OUT: 17 L/mol × 10^6

IN: Cl.N=C(N)NCCC[C@@H](C=O)NC(=O)[C@@H]1CCCN1C(=O)[C@@H](Cc1ccccc1)NS(=O)(=O)c1nccs1 [Example 19, 2-Thiazolyl-SO2 -D-Phe-Pro-Arg-H-HCl] , same question.
OUT: 3.4 L/mol × 10^6
